Recorded Fold improvement in KD (compared to IDEC131) for the following binders
# measuredTarget: T1, human CD154 (human, UniProt P29965 113-261, limits assumed)
# T1 construct: also called CD154 antigen; CD40L
# T1 sequence (looked up): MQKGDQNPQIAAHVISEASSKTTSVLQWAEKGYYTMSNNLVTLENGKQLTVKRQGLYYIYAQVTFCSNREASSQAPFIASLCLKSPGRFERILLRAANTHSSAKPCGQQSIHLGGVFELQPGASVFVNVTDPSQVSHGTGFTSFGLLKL
# assayComment: SPR, Biacore 3000, 25 C; antibody immobilized, CD154 antigen flowed over; average n = 6
Report the value in fold with no unit label.

Answered cases to consult:
[
  {
    "binder": "variant 30, humanized anti-human CD154 antibody derived from IDEC-131 (antibody, V domains shown) VH: EVQLQESGPGLVKPSETLSLTCTVSGDSITNGFWIWIRKPPGNKLEYMGYISYSGSTYYNPSLKSRISISRDTSKNQFSLKLSSVTAADTGVYYCAYRSYGRTPYYFDYWGQGTTLTVSS VL: DIVMTQSPSFLSASVGDRVTITCKAGHSLGTAVAWYQQKPGKSPKLLIYSASNRYTGVPDRFSGSGSGTDFTLTISSLQPEDFADYFCQQYDDYPYTFGGGTKLEIK",
    "valueReported": 4.4
  },
  {
    "binder": "variant 24, humanized anti-human CD154 antibody derived from IDEC-131 (antibody, V domains shown) VH: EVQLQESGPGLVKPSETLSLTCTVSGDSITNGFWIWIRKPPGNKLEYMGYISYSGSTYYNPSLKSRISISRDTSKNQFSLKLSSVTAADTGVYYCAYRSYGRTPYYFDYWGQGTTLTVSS VL: DIVMTQSPSFLSASVGDRVTITCKAPQNLGTAVAWYQQKPGKSPKLLIYSASNRYTGVPDRFSGSGSGTDFTLTISSLQPEDFADYFCQQYDDYPYTFGGGTKLEIK",
    "valueReported": 4.9
  },
  {
    "binder": "variant 22, humanized anti-human CD154 antibody derived from IDEC-131 (antibody, V domains shown) VH: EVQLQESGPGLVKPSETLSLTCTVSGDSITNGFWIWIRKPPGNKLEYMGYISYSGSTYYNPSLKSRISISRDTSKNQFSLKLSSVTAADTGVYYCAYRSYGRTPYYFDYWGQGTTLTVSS VL: DIVMTQSPSFLSASVGDRVTITCKASSNLGNAVAWYQQKPGKSPKLLIYSASNRYTGVPDRFSGSGSGTDFTLTISSLQPEDFADYFCQQYDDYPYTFGGGTKLEIK",
    "valueReported": 5.2
  }
]

# next binder below
### Prompt // fetch Fold improvement in KD (compared to IDEC131) given entry variant 31, humanized anti-human CD154 antibody derived from IDEC-131 (antibody, V domains shown) VH: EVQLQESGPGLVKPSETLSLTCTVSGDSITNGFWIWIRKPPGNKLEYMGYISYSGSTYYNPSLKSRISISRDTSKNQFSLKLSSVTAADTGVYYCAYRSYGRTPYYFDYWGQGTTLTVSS VL: DIVMTQSPSFLSASVGDRVTITCKANQPLGHAVAWYQQKPGKSPKLLIYSASNRYTGVPDRFSGSGSGTDFTLTISSLQPEDFADYFCQQYDDYPYTFGGGTKLEIK
### Response 4.8

Origin of the recorded values: patent US20180193454A1
